Target: mouse GPR142 (Mus musculus, UniProt Q7TQN9)
Sequence (Q7TQN9 67-365 limits assumed): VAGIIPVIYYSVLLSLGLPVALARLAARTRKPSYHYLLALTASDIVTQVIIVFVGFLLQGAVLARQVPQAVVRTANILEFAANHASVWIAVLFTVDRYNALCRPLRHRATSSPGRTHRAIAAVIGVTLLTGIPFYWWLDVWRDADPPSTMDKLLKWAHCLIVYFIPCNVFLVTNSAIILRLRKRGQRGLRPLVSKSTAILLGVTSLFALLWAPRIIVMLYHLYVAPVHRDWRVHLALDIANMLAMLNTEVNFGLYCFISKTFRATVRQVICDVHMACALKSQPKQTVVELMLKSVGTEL
Experiment: IP-1 accumulation assay in HEK293 cells stably expressing mouse Gpr142
Type: cell-based
Details: IP-1 accumulation, 1 hour, 0.17 nM to 30 μM; read-out: HEK293-mGPR142 EC50
MEASUREMENT_KIND: EC50 (pM)
Give just the numeric value; pM need not be written.

Reported EC50 for CCCc1c(C(=O)NCc2cncn2C)cnn1-c1ncc(C)c(-c2cccs2)n1 [Compound A] was 880

---

Provide the recorded Emax for the entries that follow.
Target: human GPR142 (Homo sapiens, UniProt Q7Z601)
Construct: expressed in transfected cells
Assay: IP-1 accumulation assay in HEK293 cells stably expressing human GPR142
Format: cell-based
Conditions: HEK293; relative efficacy normalized to maximal response of L-Tryptophan (100%); read-out: HEK293-hGPR142 Emax

Reported Emax for N[C@H](Cc1c[nH]c2ccccc12)C(=O)O was 29%

Reported Emax for N[C@@H](Cc1c[nH]c2ccccc12)C(=O)O was 100%

Reported Emax for N[C@@H](Cc1ccc(O)cc1)C(=O)O was 14%

Reported Emax for CCCc1c(C(=O)NCc2cncn2C)cnn1-c1ncc(C)c(-c2cccs2)n1 was 90%

Reported Emax for NCCCC[C@H](N)C(=O)O was 20%

Reported Emax for N[C@@H](CC(=O)O)C(=O)O was 41%

Reported Emax for Nc1ccccc1C(=O)C[C@H](N)C(=O)O was 18%

Reported Emax for N[C@@H](Cc1ccccc1)C(=O)O was 96%

---

Provide the recorded EC50 for the entries that follow.
Target: human GPR142 (Homo sapiens)
Construct: expressed in transfected cells
Sequence (Q7Z601 1-374 isoform Q7Z601-2): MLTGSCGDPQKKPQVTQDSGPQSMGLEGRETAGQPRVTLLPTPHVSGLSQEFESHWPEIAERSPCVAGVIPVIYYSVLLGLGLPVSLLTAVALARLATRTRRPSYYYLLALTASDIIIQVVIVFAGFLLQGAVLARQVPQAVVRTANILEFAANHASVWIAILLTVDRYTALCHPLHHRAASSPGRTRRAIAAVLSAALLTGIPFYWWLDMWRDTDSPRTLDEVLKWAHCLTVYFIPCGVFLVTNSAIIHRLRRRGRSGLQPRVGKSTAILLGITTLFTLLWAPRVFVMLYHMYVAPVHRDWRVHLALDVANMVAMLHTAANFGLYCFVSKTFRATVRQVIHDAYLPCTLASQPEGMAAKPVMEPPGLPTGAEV
Test: IP-1 accumulation assay in HEK293 cells stably expressing human GPR142
Format: cell-based
Details: IP-1 accumulation, 1 hour, 170 nM to 30 mM; read-out: HEK293-hGPR142 EC50
Description: HEK293 cells obtained from ATCC were used to generate cell lines stably expressing human GPR142 or mouse Gpr142 by transfecting cells with pcDNA3.1 expression vectors containing each cDNA. Cells expanded from single clones were maintained in DMEM containing 10% fetal bovine serum (FBS) and 800 μg/ml G418. […] Fluorescence was read in an Envision instrument at 665 nm and 620 nm. The ratio of 665 nm/620 nm was calculated and converted to IP-1 levels using a standard curve method. […]
Give just the numeric value; mM need not be written.

Assay human GPR142 (Homo sapiens), sample NCCCC[C@H](N)C(=O)O , EC50 read: 16

Assay human GPR142 (Homo sapiens), sample N[C@@H](Cc1ccc(O)cc1)C(=O)O , EC50 read: 16

Assay human GPR142 (Homo sapiens), sample N[C@@H](Cc1c[nH]c2ccccc12)C(=O)O , EC50 read: 2.1

Assay human GPR142 (Homo sapiens), sample Nc1ccccc1C(=O)C[C@H](N)C(=O)O , EC50 read: 12

---

Molecular target: human GPR142 (Homo sapiens, UniProt Q7Z601)
Construct: expressed in transfected cells
Test: IP-1 accumulation assay in HEK293 cells stably expressing human GPR142
Assay type: cell-based
Settings: activity call; tested 170 nM to 30 mM
MEASUREMENT_KIND: HEK293-hGPR142 EC50 (Emax)

# COMPOUND, MEASUREMENT_KIND, REPORTED_RESULT
rows = [
    ("N[C@@H](CS)C(=O)O [L-Cysteine]", "HEK293-hGPR142 EC50 (Emax)", "Inactive"),
    ("N[C@@H](Cc1c[nH]cn1)C(=O)O [L-Histidine]", "HEK293-hGPR142 EC50 (Emax)", "Inactive"),
    ("O=C(O)[C@@H]1CCCN1 [L-Proline]", "HEK293-hGPR142 EC50 (Emax)", "Inactive"),
    ("NCCc1c[nH]c2ccccc12 [Trytamine]", "HEK293-hGPR142 EC50 (Emax)", "Inactive"),
    ("NCC(=O)O [Glycine]", "HEK293-hGPR142 EC50 (Emax)", "Inactive"),
    ("NC(=O)C[C@H](N)C(=O)O [L-Asparagine]", "HEK293-hGPR142 EC50 (Emax)", "Inactive"),
    ("N[C@@H](CCC(=O)O)C(=O)O [L-Glutamic Acid]", "HEK293-hGPR142 EC50 (Emax)", "Inactive"),
    ("CSCC[C@H](N)C(=O)O [L-Methionine]", "HEK293-hGPR142 EC50 (Emax)", "Inactive"),
    ("CC(C)C[C@H](N)C(=O)O [L-Leucine]", "HEK293-hGPR142 EC50 (Emax)", "Inactive"),
    ("CC[C@H](C)[C@H](N)C(=O)O [L-Isoleucine]", "HEK293-hGPR142 EC50 (Emax)", "Inactive"),
]

Reported HEK293-hGPR142 EC50 (Emax) for C[C@@H](O)[C@H](N)C(=O)O [L-Threonine] was Inactive

Reported HEK293-hGPR142 EC50 (Emax) for C[C@H](N)C(=O)O [L-Alanine] was Inactive

Reported HEK293-hGPR142 EC50 (Emax) for CC(C)[C@H](N)C(=O)O [L-Valine] was Inactive

Reported HEK293-hGPR142 EC50 (Emax) for N[C@@H](CO)C(=O)O [L-Serine] was Inactive

Reported HEK293-hGPR142 EC50 (Emax) for NC(=O)CC[C@H](N)C(=O)O [L-Glutamine] was Inactive

---

Provide the recorded pEC50 for the entries that follow.
Target: mouse GPR142 (Mus musculus, UniProt Q7TQN9)
Assay: IP-1 accumulation assay in HEK293 cells stably expressing mouse Gpr142
Type: cell-based
Conditions: IP-1 accumulation, 1 hour, 170 nM to 30 mM; read-out: HEK293-mGPR142 EC50
As a rule, pEC50 stands for the negative log10 of the concentration, concentration in M.

Reported pEC50 for N[C@@H](Cc1ccccc1)C(=O)O was 2.55

Reported pEC50 for N[C@@H](Cc1c[nH]c2ccccc12)C(=O)O was 3.21

---

Provide the recorded pEC50 for the entries that follow.
Target: human GPR142 (Homo sapiens)
Construct: expressed in transfected cells
Sequence (Q7Z601 1-374 isoform Q7Z601-2): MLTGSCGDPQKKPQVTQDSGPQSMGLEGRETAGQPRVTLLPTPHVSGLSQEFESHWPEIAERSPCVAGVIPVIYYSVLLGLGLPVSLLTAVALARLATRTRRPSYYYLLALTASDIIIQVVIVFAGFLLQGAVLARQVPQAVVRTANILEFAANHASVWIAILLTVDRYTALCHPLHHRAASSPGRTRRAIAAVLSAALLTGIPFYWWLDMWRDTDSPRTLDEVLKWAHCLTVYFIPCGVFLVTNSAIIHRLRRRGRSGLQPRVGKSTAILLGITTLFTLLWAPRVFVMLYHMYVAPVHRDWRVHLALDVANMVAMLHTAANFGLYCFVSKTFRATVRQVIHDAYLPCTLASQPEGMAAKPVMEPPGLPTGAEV
Assay: IP-1 accumulation assay in HEK293 cells stably expressing human GPR142
Assay type: cell-based
Conditions: IP-1 accumulation, 1 hour, 170 nM to 30 mM; read-out: HEK293-hGPR142 EC50
As a rule, pEC50 stands for the negative log10 of the concentration, concentration in M.

Assay human GPR142 (Homo sapiens), sample N[C@@H](Cc1c[nH]c2ccc(O)cc12)C(=O)O , pEC50 read: 1.92

Assay human GPR142 (Homo sapiens), sample N[C@H](Cc1c[nH]c2ccccc12)C(=O)O , pEC50 read: 2.46

Assay human GPR142 (Homo sapiens), sample N[C@@H](Cc1ccccc1)C(=O)O , pEC50 read: 2.46
